Record form. Attribute: remaining proliferation (% of control), lower = more inhibition. Fill in for each entry.
method.notes: qHTS profiling for inhibitors of Plasmodium falciparum (HB3) proliferation (AID 743324);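 also: 100% = DMSO vehicle wells and 0% = artemisinin-treated control wells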
applied.conditions: Plasmodium falciparum HB3 blood-stage proliferation; at 28.7 µM (top of the series) unless noted
Give bare numbers, in %.

- CC[C@@H](C)[C@H]1O[C@]2(CC[C@H]1C)C[C@@H]1C[C@@H](CC=C(C)[C@@H](O[C@H]3C[C@H](OC)[C@@H](O[C@H]4C[C@H](OC)[C@@H](O)[C@H](C)O4)[C@H](C)O3)[C@@H](C)C=CC=C3CO[C@@H]4[C@H](O)C(C)=C[C@@H](C(=O)O1)[C@]34O)O2: -0.425
- C=CCc1cccc(/C=N/NC(=O)CN2CCN(Cc3ccccc3)CC2)c1O: 9.08
- C=CC(C)=C[C@@]1(C)SC(=O)C(C)=C1O: 92.5

Please look at the following compound next.
Request: Fill in the blank: the reported remaining proliferation (% of control), lower = more inhibition of C=C[C@@H]1CN2CC[C@@H]1C[C@H]2[C@H](O)c1ccnc2ccc(OC)cc12 is ____.
Result: 1.02

====

subject.of.test: Ubiquitin carboxyl-terminal hydrolase 1 (Homo sapiens) (UniProt O94782)
Sequence (O94782 whole entry, looked up): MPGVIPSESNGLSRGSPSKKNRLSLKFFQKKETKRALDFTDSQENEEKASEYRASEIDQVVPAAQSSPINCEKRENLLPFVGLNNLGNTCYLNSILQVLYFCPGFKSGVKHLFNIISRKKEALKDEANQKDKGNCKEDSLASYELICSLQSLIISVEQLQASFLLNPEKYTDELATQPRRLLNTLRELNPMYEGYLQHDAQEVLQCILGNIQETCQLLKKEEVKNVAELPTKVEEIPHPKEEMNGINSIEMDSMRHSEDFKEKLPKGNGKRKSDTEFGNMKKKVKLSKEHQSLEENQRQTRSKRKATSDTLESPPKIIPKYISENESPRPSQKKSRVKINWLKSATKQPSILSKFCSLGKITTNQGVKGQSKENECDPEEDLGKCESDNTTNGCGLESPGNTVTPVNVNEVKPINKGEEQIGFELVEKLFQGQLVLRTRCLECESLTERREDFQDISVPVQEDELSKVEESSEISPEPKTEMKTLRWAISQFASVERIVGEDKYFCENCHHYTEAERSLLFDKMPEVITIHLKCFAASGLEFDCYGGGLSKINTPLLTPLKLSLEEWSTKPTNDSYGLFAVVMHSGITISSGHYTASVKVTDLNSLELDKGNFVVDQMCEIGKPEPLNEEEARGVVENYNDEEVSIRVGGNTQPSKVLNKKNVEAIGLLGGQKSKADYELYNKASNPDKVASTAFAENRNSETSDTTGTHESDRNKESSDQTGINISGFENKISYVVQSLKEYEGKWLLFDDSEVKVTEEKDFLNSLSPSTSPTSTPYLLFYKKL
method.notes: Inhibitors of USP1/UAF1: Pilot qHTS (AID 504865);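 also: rhodamine fluorescence freed from ubiquitin-rhodamine substrate followed over time; top concentration of the series differs between compounds; % is scaled to controls: 0 for no effect and ±100 for the full control effect; nearly all actives have a fitted effect of over 35% in size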
applied.conditions: purified USP1/UAF1, Ub-rhodamine cleavage fluorescence; series mostly up to 114 µM
Inconclusive results are not listed. The source made the active and inactive calls. Calls come from the whole dose curve; as a rule, active = well fitted inhibition curve with a large enough effect; inconclusive = small, poorly fitted or top-dose-only effect; inactive = flat fitted curve, though single readings scatter.
API: response.call in active, inactive

- CN(C)c1nc2c(Br)c(Br)c(Br)c(Br)c2[nH]1: inactive

Request: Which outcome was entered for the compound C[N+](C)(C)CCOP(=O)(O)OP(=O)([O-])OC[C@H]1O[C@@H](n2ccc(N)nc2=O)[C@H](O)[C@@H]1O in this test?
Result: inactive

Request: Just curious, what result did NC(=O)C1=CN(C2OC(COP(=O)(O)OP(=O)(O)OC[C@H]3O[C@@H](n4cnc5c(N)ncnc54)[C@H](OP(=O)(O)O)[C@@H]3O)C(O)C2O)C=CC1 (stereo partly specified) get here?
Result: inactive

Request: Dear colleague, could you share the recorded outcome for O=c1[nH]c2cc(Cl)c(Cl)cc2[nH]c1=O when you have a moment?
Result: inactive

Request: I'd appreciate the recorded outcome for O=C(O)CC[C@@H](C(=O)O)N1C(=O)c2ccccc2C1=O from this test.
Result: inactive

Request: Which outcome was entered for the compound Cc1ccc(C(=O)O[C@H](C(=O)O)[C@@H](OC(=O)c2ccc(C)cc2)C(=O)O)cc1 (tested in a mixture with another compound) in this test?
Result: inactive

====

method.notes: qHTS assay for small molecule agonists of retinoid X receptor alpha signaling (AID 588544)
applied.conditions: HEK293T RXRa-UAS-bla, beta-lactamase reporter, 18 h; 530 nm emission
Records with an inconclusive call do not appear.
quantity.measured: max response (%)
Answers are plain numbers, in %.

Solved entries (count: 6):
* CCCCCCCCCCCCCCCC(=O)OC(C)C | 0.385
* O=C(O)c1cc(O)c(O)c(O)c1 | 4.26
* O=C(OCc1ccccc1)c1ccccc1 | 2.86
* C=CCCCCCCCCC(=O)O | -10
* Oc1ccccc1O | 7.41
* Nc1cc(-c2ccncc2)c[nH]c1=O | 3.04

Count: 4. Required value per item: max response.
1. S=c1[nH]c2ccccc2s1
2. N=C1N=C(N)c2cc3ccccc3cc21
3. O=C(O)[C@H](O)[C@@H](O)[C@H](O)[C@H](O)CO
4. CC1(C)S[C@@H]2[C@H](NC(=O)[C@H](N)c3ccccc3)C(=O)N2[C@H]1C(=O)O

Result:
[-3.92, 12.6, -12.4, -24.6]
